Sourced from ChEMBL document CHEMBL1201862

For each of the compounds below, state its EC50.
# test.method.notes: inhibitors of intracellular T. cruzi replication, confirmation, NIH3T3 host cells, beta-gal luminescence (AID 2044);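 note: intracellular parasites grown in NIH/3T3 mouse fibroblasts as host cells; luminescent beta-galactosidase reporter signal from transgenic T. cruzi replicating inside host cells; inhibitors lower the luminescence signal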
# Format: functional, cell-based
The source made the active and inactive calls. Cut-off read from the data, not from the text of the source: actives have a measured EC50 and inactives only a lower limit.

compound	value
COc1ccc(-c2ccc([C@H]3[C@@H]4C=CCC[C@@]4(C)C(=O)N3Cc3ccccc3)c(F)c2)cc1OC	2550 nM (active)
CCN(CCCC(=O)c1ccc(F)cc1)CCc1ccccc1	111 nM (active)
Cc1ccc2nc(-c3ccncc3)c(NC3CCCCC3)n2c1	1860 nM (active)
O=C(CN=C(S)N(Cc1ccccc1)Cc1ccccc1F)NCCc1ccc(Cl)cc1	1920 nM (active)
O=C(NNc1nc2ccc(F)cc2s1)c1cccc(F)c1	3840 nM (active)
CN(C)CCCN(C(=O)COc1ccc(Cl)cc1)c1nc2cc3c(cc2s1)OCCO3	< 100 nM (active)

Read the next record carefully.
Lab book: EC50 of Cc1ccc(C(CNS(=O)(=O)c2ccc([N+](=O)[O-])cc2)N2CCN(C)CC2)cc1 (configuration not stated) noted as 1650 nM (active)
